Tested on: OVCAR-4 ovarian
protocol: NCI tumour cell line growth inhibition, 48 h

compound: CC(C)(C)OC(=O)N/C(C=O)=C\C1CCCCC1
TGI: 97.8 µM
//
compound: Cc1ccc(S(=O)(=O)N2C[C@@H]3CC[C@]4(CO[Si](C)(C)C(C)(C)C)N[C@@H](c5ccccc5)[C@H]2[C@H]34)cc1
TGI: > 100 µM
//
compound: Cc1ccc2nc3ccccc3c(NCc3ccc(Cl)cc3)c2c1
TGI: 11.9 µM
//
compound: CCCCCCCCCCCC1=NC(C)(C)CN1C(C)(C)CO
TGI: 15.8 µM
//
compound: O=c1cc(-c2ccccn2)[nH]c2cccc(F)c12
TGI: > 100 µM
//
compound: c1ccc(-c2nn3c(c2-c2ccnc4cc(OCCN5CCOCC5)ccc24)CCC3)nc1
TGI: > 100 µM
//
compound: O=C(CCN1CCCC1)Nc1ccc2c(NCc3ccccc3)c3ccccc3nc2c1
TGI: 1.63 µM
//
compound: COC(=O)C1=C(OC(=O)/C(=C/c2ccccc2)c2ccc(OC)cc2)C(C(=O)OC)[C@@]2(O)[C@@H](C(=O)OC)[C@H](C)C[C@@H]1[C@@H]2C(=O)OC (stereo not given in full)
TGI: > 100 µM
//
compound: C/C(=C\c1ccn(-c2ccccc2N)n1)[C@@H]1C[C@@H]2O[C@]2(C)CCC[C@H](C)[C@H](O)[C@@H](C)C(=O)C(C)(C)[C@@H](O)CC(=O)O1
TGI: > 50 µM
//
compound: O=C(O)C(Cc1cnc[nH]1)N1C(=O)c2ccccc2C1=O (stereo not given)
TGI: > 100 µM
//
compound: COc1ccccc1/C=C1\COc2ccc(-c3ccccc3)cc2C1=O
TGI: > 100 µM
//
compound: CC(C)(C)OC(=O)NC12C3C4C1C1C2C3C41NC(=O)OC(C)(C)C (stereo not given)
TGI: > 100 µM
//
compound: O=C(CCN1CCOCC1)/C(=C/c1ccccc1)c1ccccc1
TGI: 23.8 µM
//
compound: CCO/C=C1\N=C(c2ccc(Cl)c(Cl)c2)OC1=O
TGI: > 100 µM
//
compound: Cc1cc(-n2nnc(C(=O)O)c2-c2ccccc2)c2ccc(Cl)cc2n1
TGI: > 100 µM
//
compound: Cc1ccc(/C=C/c2c(C(=O)/C=C/c3ccccc3)c(C)nc3ccccc23)cc1
TGI: 7.72 µM
//
compound: C[C@@H]1[C@@H](C)C(c2ccccc2)O[Si]1(C(C)(C)C)C(C)(C)C (stereo not given in full)
TGI: > 86.1 µM
//
compound: COc1cc(-c2nc3ccccc3s2)ccc1OCCCCOc1cc2c(cc1OC)C(=O)N1CCC[C@H]1C=N2
TGI: 7.61 µM
//
compound: Cc1ccc(S(=O)(=O)NC(=O)NC(Cc2ccc(O)cc2)C(=O)O)cc1 (stereo not given)
TGI: > 100 µM
//
compound: CC(C(=O)OCc1ccccc1)N(Cc1ccccc1)Cc1ccccc1 (stereo not given)
TGI: > 100 µM

----------
Test system: OVCAR-3 ovarian
protocol: NCI tumour cell line growth inhibition, 48 h
experimental.readout: TGI

molecule: COc1ccc(C#Cn2nnc3ccccc32)cc1
experimental.readout: TGI
result: > 100 µM
--
molecule: CSC(=S)Nc1cc(C)cc(C)n1
experimental.readout: TGI
result: > 31.6 µM
--
molecule: Cc1nc2cc(F)c(F)cc2[nH]c1=O
experimental.readout: TGI
result: > 100 µM
--
molecule: CC(=O)n1cc(C2CC23N=C(c2ccccc2)OC3=O)c2ccccc21 (stereo unspecified)
experimental.readout: TGI
result: 53.4 µM
--
molecule: CCN1C/C(=C\c2ccc(Cl)cc2)c2nc(N)c(C#N)c(-c3ccc(Cl)cc3)c2C1
experimental.readout: TGI
result: > 100 µM
--
molecule: CCc1cccc2c3c([nH]c12)-c1ccccc1NC(=O)C3
experimental.readout: TGI
result: > 100 µM
--
molecule: COC(=O)C1CC2(C)C=CC1N(C(=O)OCc1ccccc1)C2 (stereo unspecified)
experimental.readout: TGI
result: > 100 µM
--
molecule: Cc1c(CNc2ccc(C(=O)NC(CCCNC(=O)c3ccccc3C(=O)O)C(=O)O)cc2)cnc2nc(N)nc(N)c12 (stereo unspecified)
experimental.readout: TGI
result: > 100 µM
--
molecule: Cc1ccc2nc3ccccc3c(NCc3ccc(Cl)cc3)c2c1
experimental.readout: TGI
result: 13 µM
--
molecule: CCCC[C@@H](C)/C=C1\CN2CCC[C@H]2[C@@](C)(OCc2ccccc2)[C@@H]1O
experimental.readout: TGI
result: > 28.7 µM
--
molecule: COc1ccc2c(c1)/C(=C\c1ccncc1)C(=O)N2
experimental.readout: TGI
result: 27.5 µM

----------
Reported TGI values for a set of compounds
System: OVCAR-8 ovarian
protocol: NCI tumour cell line growth inhibition, 48 h

compound: CN(C)Cc1ccc(-c2cc3onc(-c4ccccc4)c3c(=O)n2C)cc1
TGI: > 100 µM
--
compound: CN1C(=O)c2ccc3ccccc3c2C1=O
TGI: > 100 µM
--
compound: COc1cc(CNc2nc3c(N)cc(C(F)(F)F)cc3nc2-c2ccccc2)cc(OC)c1OC
TGI: > 100 µM
--
compound: CCc1cccc2c3c([nH]c12)-c1ccccc1NC(=O)C3
TGI: > 100 µM
--
compound: NS(=O)(=O)c1nc(S(=O)(=O)O)c2[nH]cnc2n1
TGI: > 100 µM
--
compound: NC(CCCC(N)P(=O)(O)O)C(=O)O (stereo not given)
TGI: > 100 µM
--
compound: Cc1ccc(S(=O)(=O)NC(CCC(=O)NNc2ccccc2)C(=O)NNc2ccccc2)cc1 (stereo not given)
TGI: > 100 µM
--
compound: CSC(=S)Nc1cc(C)cc(C)n1
TGI: > 31.6 µM
--
compound: Cn1cnc(N)c(N=O)c1=O
TGI: > 10 µM
--
compound: CO/N=C(\COc1ccc2c(=O)c3ccccc3oc2c1)c1ccccc1
TGI: 97.2 µM
--
compound: CCOC(=O)c1ccc(Nc2nc3ccccc3nc2-c2cccs2)cc1
TGI: > 100 µM
--
compound: O=C(O)CCC(=O)OCN1C(=O)C2C3C=CC(C2C1=O)C1C2C(=O)N(COC(=O)CCC(=O)O)C(=O)C2C31 (stereo not given)
TGI: > 100 µM
--
compound: COc1cc(/C=C/c2ccc(C)cc2)cc(OC)c1OC
TGI: 15.9 µM
--
compound: CCN1C/C(=C\c2ccc(Cl)cc2)c2nc(N)c(C#N)c(-c3ccc(Cl)cc3)c2C1
TGI: > 100 µM
--
compound: CCCCCCCCCCCC1=NC(C)(C)CN1C(C)(C)CO
TGI: 13.4 µM
--
compound: CCCCc1ccc(Nc2ncc3ncn(COCCO)c3n2)cc1
TGI: > 100 µM
--
compound: C1=C(c2ccccc2)C(N2CCOCC2)Oc2ccccc21 (stereo not given)
TGI: > 100 µM
--
compound: COc1ccc2c(c1)nc(NNC(=O)c1cnccn1)c1cccn12
TGI: 3.05 µM
--
compound: C/C(=C\c1ccn(-c2ccccc2N)n1)[C@@H]1C[C@@H]2O[C@]2(C)CCC[C@H](C)[C@H](O)[C@@H](C)C(=O)C(C)(C)[C@@H](O)CC(=O)O1
TGI: > 50 µM
--
compound: CC1=NN(c2cccc(Cl)c2)C2(C1=Cc1ccc(O)cc1)C(Cl)C(=O)N2c1nc2ccccc2s1 (stereo not given)
TGI: 87.8 µM
--
compound: O=[N+]([O-])c1cc[n+]([O-])c2ccccc12
TGI: 2.12 µM
--
compound: Oc1c(C(Nc2ccccc2Br)c2ccccc2)ccc2cccnc12 (stereo not given)
TGI: > 100 µM
--
compound: C[N+]1=c2c3cccc4cccc(c(=O)n2CC1)c43
TGI: 80.9 µM
--
compound: CNc1nnc(CCCCCCCCc2nnc(NC)o2)o1
TGI: > 100 µM
--
compound: COC(=O)c1cc(-c2ccccc2)[nH]c1N/N=C/c1c(Cl)cccc1Cl
TGI: > 100 µM
--
compound: COC1C(OC(=O)c2ccc(C)[nH]2)C(O)C(Oc2ccc3c(O)c(NC(=O)c4c[nH]c(C(=O)Nc5c(O)c6ccc(OC7OC(C)(C)C(OC)C(OC(=O)c8ccc(C)[nH]8)C7O)c(C)c6oc5=O)c4C)c(=O)oc3c2C)OC1(C)C (stereo not given)
TGI: > 100 µM
--
compound: COC(=O)c1ccccc1C1CN=NC12Cc1c(ccc3c1CCC3)C2=O (stereo not given)
TGI: > 100 µM
--
compound: N#CC(CCN1CCC(Nc2ccccc2)(c2nnnn2C2CCCCC2)CC1)(c1ccccc1)c1ccccc1
TGI: > 100 µM
--
compound: Cc1cn2c(/C=C3/C(=O)Nc4c3ccc3ccccc43)c(C(F)(F)F)nc2s1
TGI: > 100 µM
--
compound: C#C[C@]1(O)CC[C@H]2[C@@H]3CC=C4c5sc(Nc6cc(F)ccc6F)nc5CC[C@]4(C)[C@H]3CC[C@@]21C
TGI: 12.1 µM
--
compound: C=CC(=O)N1CCC(c2ccc(C(N)=O)c(-c3ccc(Oc4ccccc4)cc3)n2)CC1
TGI: > 100 µM
--
compound: C=C(C(=O)O[C@H]1C/C(C)=C/CC/C(CO)=C/[C@H]2C(=O)OC(=C)[C@H]12)C(O)CO (stereo not given in full)
TGI: 40.1 µM
--
compound: COc1cccc(N=N/C(=N/NC(=O)c2ccc(C)cc2)c2ccc(N(CCC#N)CCC#N)cc2OC)c1
TGI: > 100 µM
--
compound: CC(C)(C)OC(=O)[C@@H]1CCC(=O)N1C1(c2ccccc2)c2ccccc2-c2ccccc21
TGI: > 100 µM
--
compound: CN1/C(=C/C=C/C=C/C=C2C(=O)c3ccccc3C2=O)C(C)(C)c2ccccc21
TGI: > 100 µM
--
compound: O=C1c2cc(Cc3ccccc3)c(=O)c(Cc3ccccc3)cc2C(=O)c2cc(Cc3ccccc3)c(=O)c(Cc3ccccc3)cc21
TGI: > 100 µM
--
compound: O=C(/C=C(\O)C(=O)O)/C=C(\O)c1ccccc1
TGI: > 100 µM
--
compound: N#Cc1nc(-c2ccc(F)cc2)oc1S(=O)(=O)N1CCCCC1
TGI: 24.1 µM
--
compound: Cn1cccc1-c1ccc(-c2ccc(CO)[se]2)[se]1
TGI: > 100 µM
--
compound: NCCCN(CCCCN(CCCN)C(=O)OCc1ccccc1)C(=O)OCc1ccccc1
TGI: > 100 µM
